Target: estrogen receptor (Homo sapiens, UniProt P03372)
Construct: made in house; host or cells: Chinese Hamster Ovary (CHO) cells, ribosome-free cytosol
Sequence (P03372 whole entry): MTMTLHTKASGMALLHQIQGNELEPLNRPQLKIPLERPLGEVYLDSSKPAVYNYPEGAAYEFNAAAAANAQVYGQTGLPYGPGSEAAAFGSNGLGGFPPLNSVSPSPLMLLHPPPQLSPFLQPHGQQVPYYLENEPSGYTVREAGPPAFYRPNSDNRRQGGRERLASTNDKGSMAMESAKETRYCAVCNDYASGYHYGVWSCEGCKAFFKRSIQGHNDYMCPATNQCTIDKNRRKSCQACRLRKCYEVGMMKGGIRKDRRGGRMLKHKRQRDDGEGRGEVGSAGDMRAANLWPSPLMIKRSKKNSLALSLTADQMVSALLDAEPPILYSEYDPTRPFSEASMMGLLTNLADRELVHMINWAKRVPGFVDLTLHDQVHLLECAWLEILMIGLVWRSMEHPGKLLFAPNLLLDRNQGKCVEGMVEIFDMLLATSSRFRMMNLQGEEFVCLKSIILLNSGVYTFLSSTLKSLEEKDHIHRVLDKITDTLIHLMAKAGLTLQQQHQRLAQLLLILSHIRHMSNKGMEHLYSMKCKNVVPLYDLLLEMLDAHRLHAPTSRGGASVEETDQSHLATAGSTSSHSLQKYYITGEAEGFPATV
Assay: In vitro estrogen receptor binding assay (competition with [^3 H]-17-β-estradiol)
Settings: read-out: IC50

smiles input: O=c1c2ccc(O)cc2nc(-c2ccc(O)cc2)n1-c1ccc(OCCN2CCCCC2)cc1
IC50: 6.5 µM
